conditions: human gut metagenome, 24 h, 2 µM; further: call rule not given here
measuredAttribute: Bacterial Biotransformation

N#Cc1ccc(C(c2ccc(C#N)cc2)n2cncn2)cc1 :: Compound NOT metabolized
Cc1nc2n(c(=O)c1CCN1CCC(c3noc4cc(F)ccc34)CC1)CCCC2 :: Compound metabolized
CC(C)(C)NC[C@H](O)COc1ccccc1C1CCCC1.CC(C)(C)NC[C@H](O)COc1ccccc1C1CCCC1.O=S(=O)(O)O [PENBUTOLOL SULFATE] :: Compound metabolized
CC(C)(Oc1ccc(CCNC(=O)c2ccc(Cl)cc2)cc1)C(=O)O [BEZAFIBRATE] :: Compound metabolized

Tell me the measured Bacterial Biotransformation of O=P(O)(O)O.c1ccc(CN(CC2=NCCN2)c2ccccc2)cc1 [ANTAZOLINE PHOSPHATE] , please.
Compound NOT metabolized

And CN(C(=O)CN(CCO)CC(=O)N(C)C(C)(C)Cc1ccccc1)C(C)(C)Cc1ccccc1 ?
Compound metabolized

Then what about the compound COc1ccc(CCN(C)CCCC(C#N)(c2ccc(OC)c(OC)c2)C(C)C)cc1OC (centres undefined) ?
Compound metabolized

Try this compound too: C[C@@H]1CC[C@H]2[C@@H](C)C(=O)O[C@@H]3O[C@@]4(C)CC[C@@H]1[C@]32OO4
Compound metabolized

What do you get for Br.CN(C)CCCC1(c2ccc(F)cc2)OCc2cc(C#N)ccc21 (centres undefined) [CITALOPRAM HYDROBROMIDE] ?
Compound metabolized

###

experiment: The drug is tested on Z-002 corresponding to rabbit gut metagenome with ENA study accession number: PRJEB37062 and ENA sample accession number: ERS12561802 for biotransformation under anaerobic condition. The drug concentrations were measured over 9 timepoints collected between 0 and 24 hours of incubation by liquid-chromatography-coupled mass spectrometry (LC–MS); settings: 2 µM
measuredAttribute: Bacterial Biotransformation

Nc1ccc(/N=N/c2ccccc2)c(N)n1 [PHENAZOPYRIDINE] :: Compound metabolized
CNC(=C[N+](=O)[O-])NCCSCc1ccc(CN(C)C)o1 [RANITIDINE] :: Compound metabolized
CC(=O)OCC(=O)[C@@]1(O)[C@@H](C)C[C@H]2[C@@H]3CCC4=CC(=O)C=C[C@]4(C)[C@@]3(F)[C@@H](O)C[C@@]21C [BETAMETHASONE ACETATE] :: Compound metabolized
NS(=O)(=O)c1cc2c(cc1Cl)N=C(CSCc1ccccc1)NS2(=O)=O [BENZTHIAZIDE] :: Compound metabolized

###

conditions: human gut metagenome, 24 h, 2 µM
measuredAttribute: Bacterial Biotransformation

// worked examples, Bacterial Biotransformation included
COc1ccccc1N1CCN(CC(O)COc2cccc3ccccc23)CC1 (centres undefined) [NAFTOPIDIL] :: Compound NOT metabolized
COc1ccc2c(c1OC)C(=O)O[C@@H]2[C@H]1c2c(cc3c(c2OC)OCO3)CCN1C [NOSCAPINE] :: Compound NOT metabolized
C[C@@H](CO)NC(=O)[C@@H]1C=C2c3cccc4[nH]cc(c34)C[C@H]2N(C)C1.O=C(O)/C=C\C(=O)O [ERGONOVINE MALEATE] :: Compound metabolized
C=CCc1ccccc1OCC(O)CNC(C)C (centres undefined) [ALPRENOLOL] :: Compound NOT metabolized
Clc1ccc(Cn2c(CN3CCCC3)nc3ccccc32)cc1 [CLEMIZOLE] :: Compound metabolized

Query compound follows.
# input compound: Cc1nc(-c2ccc(OCC(C)C)c(C#N)c2)sc1C(=O)O [FEBUXOSTAT] ; wanted: its Bacterial Biotransformation
Compound metabolized

###

settings: human gut metagenome, 24 h, 2 µM
measuredAttribute: Bacterial Biotransformation

Here's what some known entries look like.
CCC(COC(=O)c1cc(OC)c(OC)c(OC)c1)(c1ccccc1)N(C)C.O=C(O)/C=C\C(=O)O (centres undefined) :: Compound NOT metabolized
COc1ccc2[nH]c([S+]([O-])Cc3ncc(C)c(OC)c3C)nc2n1 (centres undefined) :: Compound NOT metabolized
Cc1ccccc1N1C(=O)c2cc(S(N)(=O)=O)c(Cl)cc2NC1C (centres undefined) :: Compound metabolized
Nc1c2c(nc3ccccc13)CCCC2 :: Compound NOT metabolized
COc1ccc2[nH]c([S+]([O-])Cc3ncc(C)c(OC)c3C)nc2c1 (centres undefined) :: Compound metabolized

Suppose we examine the compound C=CCN1CC[C@]23c4c5ccc(O)c4O[C@H]2C(=O)CC[C@@]3(O)[C@H]1C5 ; what Bacterial Biotransformation value has been reported?
Compound metabolized

And the next one, COc1cc2nc(N(C)CCCNC(=O)C3CCCO3)nc(N)c2cc1OC (centres undefined) ?
Compound metabolized

Continue with CN1CCC(=C2c3ccccc3CCc3cccnc32)CC1.O=C(O)/C=C\C(=O)O.O=C(O)/C=C\C(=O)O [AZATADINE MALEATE]
Compound NOT metabolized

Item: COc1c2occc2cc2ccc(=O)oc12
Compound metabolized

###

assay: The drug is tested on Z-027 corresponding to metagenome with ENA study accession number: PRJEB37062 and ENA sample accession number: ERS12561826 for biotransformation under anaerobic condition. The drug concentrations were measured over 9 timepoints collected between 0 and 24 hours of incubation by liquid-chromatography-coupled mass spectrometry (LC–MS); conditions: 2 µM
measuredAttribute: Bacterial Biotransformation

Consider the following illustrative entries.
CS(=O)(=O)O.OC(CCN1CCCCC1)(c1ccccc1)c1ccccc1 [PRIDINOL METHANESULFONATE] :: Compound NOT metabolized
N#Cc1ccc(C(c2ccc(C#N)cc2)n2cncn2)cc1 :: Compound NOT metabolized
CCc1nc(N)nc(N)c1-c1ccc(Cl)cc1 :: Compound NOT metabolized
COc1ccc2c3c1O[C@H]1C[C@@H](O)C=C[C@@]31CCN(C)C2 :: Compound NOT metabolized
Br.CN(C)CCCC1(c2ccc(F)cc2)OCc2cc(C#N)ccc21 (centres undefined) [CITALOPRAM HYDROBROMIDE] :: Compound NOT metabolized

I would be grateful if you could share the reported Bacterial Biotransformation for C[C@@H]1CC[C@H]2[C@@H](C)C(=O)O[C@@H]3O[C@@]4(C)CC[C@@H]1[C@]32OO4 .
Compound metabolized

How about CN1CCN(C(=O)O[C@H]2c3nccnc3C(=O)N2c2ccc(Cl)cn2)CC1 ?
Compound NOT metabolized

###

conditions: human gut metagenome, 24 h, 2 µM
measuredAttribute: Bacterial Biotransformation

OCCN1CCN(CCCN2c3ccccc3Sc3ccc(C(F)(F)F)cc32)CC1 :: Compound metabolized
Cc1ccccc1N1C(=O)c2cc(S(N)(=O)=O)c(Cl)cc2NC1C (centres undefined) :: Compound metabolized
C=CCc1ccccc1OCC(O)CNC(C)C (centres undefined) :: Compound NOT metabolized
O=C(Nc1ccccc1)OCC(CN1CCCCC1)OC(=O)Nc1ccccc1 (centres undefined) :: Compound NOT metabolized
Cc1ccc(-c2nc3ccc(C)cn3c2CC(=O)N(C)C)cc1 :: Compound metabolized

# get_value(readout='Bacterial Biotransformation', item= CCN1CCCC1CNC(=O)c1cc(S(N)(=O)=O)ccc1OC (centres undefined) [SULPIRIDE] )
Compound metabolized

Same lookup for Nc1nc2ccc(OC(F)(F)F)cc2s1 , please.
Compound metabolized

Same read-out for Cc1cn([C@H]2C[C@H](N=[N+]=[N-])[C@@H](CO)O2)c(=O)[nH]c1=O ?
Compound metabolized

Input COc1ccc2c3c1O[C@H]1C[C@@H](O)C=C[C@@]31CCN(C)C2
Compound metabolized

###

assay: The drug is tested on WLS-039 corresponding to human gut metagenome with ENA study accession number: PRJEB37062 and ENA sample accession number: ERS12561746 for biotransformation under anaerobic condition. The drug concentrations were measured over 9 timepoints collected between 0 and 24 hours of incubation by liquid-chromatography-coupled mass spectrometry (LC–MS); settings: 2 µM
measuredAttribute: Bacterial Biotransformation

CN(C)CC(c1ccc(O)cc1)C1(O)CCCCC1.O=C(O)CCC(=O)O (centres undefined) [DESVENLAFAXINE SUCCINATE] :: Compound NOT metabolized
OC(Cn1cncn1)(Cn1cncn1)c1ccc(F)cc1F [FLUCONAZOLE] :: Compound NOT metabolized
Nc1c2c(nc3ccccc13)CCCC2 [TACRINE] :: Compound NOT metabolized
CCOC(=O)[C@H](CCc1ccccc1)N[C@H]1CCc2ccccc2N(CC(=O)O)C1=O [BENAZEPRIL] :: Compound metabolized
NC(CO)(CO)CO.O=C(c1ccccc1)c1ccc2n1CCC2C(=O)O (centres undefined) [KETOROLAC TROMETHAMINE] :: Compound metabolized

Bacterial Biotransformation for CCCC(=O)Nc1ccc(OCC(O)CNC(C)C)c(C(C)=O)c1 (centres undefined) [ACEBUTOLOL] ?
Compound NOT metabolized

What about CCN1CCCC1CNC(=O)c1cc(S(N)(=O)=O)ccc1OC (centres undefined) [SULPIRIDE] ?
Compound NOT metabolized

Continue with CC(C)(C#N)c1cc(Cn2cncn2)cc(C(C)(C)C#N)c1 [ANASTROZOLE]
Compound NOT metabolized

One more compound: Nc1nc2ccc(OC(F)(F)F)cc2s1 [RILUZOLE]
Compound metabolized

Same question for CC(C)NCC(O)c1ccc(NS(C)(=O)=O)cc1 (centres undefined) [SOTALOL] please.
Compound NOT metabolized
